FYI, the data here is from the supplement of paper PMC12669032.

test system: Bacteroides thetaiotaomicron; experiment: growth AUC relative to DMSO control (median of replicates) (fraction); higher = more growth (less inhibition), active = hit call of the paper; conditions: 20 µM; 24 h
reported.property: growth AUC
Answer with the value's number alone.

A selection of reference data follows.
{"columns": ["molecule", "growth AUC"],
 "data": [
  ["CC(C)(NC(=O)NCc1ccccc1Cl)c1ccccc1", 1.02],
  ["CCOC(=O)C(C)Oc1ccc(Oc2nc3ccc(Cl)cc3o2)cc1 (racemic)", 0.971],
  ["CC(C)(SC(=O)N1CCCCC1)c1ccccc1", 0.927],
  ["NC1=C(Cl)C(=O)c2ccccc2C1=O", 0.906],
  ["CCCCCCCC/C=C\\CCCCCCCCCCCC(=O)O", 1.02]
]}

# lookup: growth AUC of COC1CCC2(CC1)NC(=O)C(O)(c1cc(C)ccc1C)C2=O (centres undefined)
1.01

# lookup: growth AUC of `O=c1cc(Cl)[nH]nc1-c1ccccc1`
1.02

# lookup: growth AUC of `CCOCCc1ccc(OCCNc2ncnc(CC)c2Cl)c(C)c1C`
0.915

---

test system: Bacteroides uniformis; experiment: growth AUC relative to DMSO control (median of replicates) (fraction); higher = more growth (less inhibition), active = hit call of the paper; details: 20 µM; 24 h
reported.property: growth AUC
Answer with the value's number alone.

{"columns": ["compound", "growth AUC"],
 "data": [
  ["COc1c(I)cc(C#N)cc1I", 0.882]
]}

# lookup: growth AUC of CCc1cccc(C)c1N(C(=O)CS(=O)(=O)[O-])C(C)COC.[Na+] (stereo unspecified)
0.993

# lookup: growth AUC of `COc1ccc(Cl)c(Cl)c1Cl`
1

# lookup: growth AUC of `CC(=O)Nc1cc(NS(=O)(=O)C(F)(F)F)c(C)cc1C`
1.02

# lookup: growth AUC of CCC/C(=N\OCC)C1=C(O)CC(C2CCCSC2)CC1=O (stereo unspecified)
0.974

# lookup: growth AUC of `CCCCCCCC/C=C\CCCCCCCCCCCCC`
0.997

---

# reported growth AUC; entries follow
tested on: Clostridium difficile; assay: growth AUC relative to DMSO control (median of replicates) (fraction); higher = more growth (less inhibition), active = hit call of the paper; settings: 20 µM; 24 h
Answer with the value's number alone.

A selection of reference data follows.
{"columns": ["compound", "growth AUC"],
 "data": [
  ["CCc1nc2ncnn2c(N)c1CCCC(=O)O.Cl", 1.04],
  ["C/C=C/C(=O)Oc1c(C(C)CCCCCC)cc([N+](=O)[O-])cc1[N+](=O)[O-] (mixture of isomers)", 0.0443],
  ["C=CCOC(Cn1ccnc1)c1ccc(Cl)cc1Cl (centres undefined)", 0.926],
  ["CCSC(=O)COc1ccc(Cl)cc1C", 1.04],
  ["COC(=O)C(C)Oc1ccc(Cl)cc1Cl (centres undefined)", 1.03],
  ["CCCOC(=O)c1ccc(C(=O)OCCC)nc1", 0.99],
  ["ClC(COCC(Cl)C(Cl)(Cl)Cl)C(Cl)(Cl)Cl (centres undefined)", 1.02],
  ["COC(=O)C(Cl)Cc1ccc(Cl)cc1 (centres undefined)", 0.983],
  ["COC(=O)c1cccc(C)c1S(=O)(=O)NC(=O)Nc1nc(OCC(F)(F)F)nc(N(C)C)n1", 0.987],
  ["CC1=C(C(=O)Nc2ccccc2)CCCO1", 1.01]
]}

# lookup: growth AUC of CC(C)N(C(=O)CS(=O)CC(=O)O)c1ccc(F)cc1 (centres undefined)
1.01

# lookup: growth AUC of CCCCCCC(C)OC(=O)COc1nc(F)c(Cl)c(N)c1Cl (centres undefined)
0.952

# lookup: growth AUC of `O=C(Oc1ccccc1)n1c(C(F)(F)F)nc2cc(Cl)c(Cl)cc21`
0.561

# lookup: growth AUC of `CN(C)C(=O)c1cccnc1S(N)(=O)=O`
1.05

# lookup: growth AUC of `c1ccc2c(c1)Cc1ccccc1-2`
1.01

# lookup: growth AUC of `Cc1cccc(C)c1O`
1.03

# lookup: growth AUC of `C=CCc1ccc(OC)c(OC)c1`
0.984

# lookup: growth AUC of NC(=O)C1CO1 (centres undefined)
1.01

# lookup: growth AUC of `O=[N+]([O-])c1ccc(O)cc1`
1.02

# lookup: growth AUC of `O=[N+](Nc1ccccc1)c1ccccc1`
1

# lookup: growth AUC of CC(C)(CO)C(O)(CCc1ccc(Cl)cc1)Cn1cncn1 (centres undefined)
0.991

# lookup: growth AUC of CC(C)(C)C(=O)C(Oc1ccc(Cl)cc1)n1ccnc1 (centres undefined)
0.962

# lookup: growth AUC of `O=c1cc(Cl)[nH]nc1-c1ccccc1`
1.07

# lookup: growth AUC of `N#Cc1cc(Cl)c(O)c(Cl)c1`
0.997
